Where do the numbers come from? From ChEMBL document CHEMBL1201862.

Please provide measured GI50 for the entries that follow.
Test system: SK-MEL-28
assay.info: NCI tumour cell line growth inhibition, 48 h
The source made the active and inactive calls. No stated cut-off is given here; in the data, active = GI50 up to about 1.1 µM and inactive = higher.

Please review the following examples before continuing.
Brc1ccc2[nH]cc(-c3nc(-c4c[nH]c5ccccc45)cs3)c2c1: 5.81 µM (inactive)
COc1cc(Cn2c3ccccc3c3cc(C)c4c(c32)C=CC(C)(CCC=C(C)C)O4)cc2c1[nH]c1ccccc12 (centres undefined): > 100 µM (inactive)
COc1cc(OC)c(/C=C/c2cnc3ccccc3n2)c(OC)c1: > 10 µM (inactive)

Now for a further compound.
Endpoint output: GI50 of CC(=O)OCC1OC(N=[N+]=[N-])C(OC(C)=O)C(OC(C)=O)C1OC1OC(COC(C)=O)C(OC(C)=O)C(OC(C)=O)C1OC(C)=O (centres undefined) . Value?
> 100 µM (inactive)
